assay: antimalarial activity against Dd2 strain (AID 2302);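 also: 0% = DMSO untreated growth and 100% = chloroquine plus artemisinin killed control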; conditions: P. falciparum Dd2 in RBCs, LDH growth readout, 72 h; at 2 µM; active compounds read high
growth inhibition vs 70%: at or above is class 1, below is class 0.

>>> qualitative_label("CCN(CC)CCn1c(=N)n(CC(O)c2ccc(Cl)c(Cl)c2)c2ccccc21 (centres undefined)")
"class 1"
>>> qualitative_label("O=C1OC2(CN1CC1CCN(Cc3ccc(-n4ccnc4)cc3)C1)c1ccccc1-c1ccccc12 (centres undefined)")
"class 0"
>>> qualitative_label("O=C(Nc1ccc(F)cc1)N1CCCN(c2ccnc3cc(Cl)ccc23)CC1")
"class 0"
>>> qualitative_label("OCCNc1nc(Nc2ccccc2)nc2ccccc12")
"class 0"
>>> qualitative_label("CC(Sc1nc(-c2ccccc2)c(-c2ccccc2)o1)C(=O)NC1CC1 (centres undefined)")
"class 1"
>>> qualitative_label("CCn1ncc2c(NC3CCOCC3)c(CNC(=O)c3ccnn3C)c(C)nc21")
"class 1"
>>> qualitative_label("CC(=O)Nc1ccc(C(=O)Nc2cccc(-c3ccc(-c4nc5ccc(F)cc5[nH]4)cc3)c2)cn1")
"class 1"
>>> qualitative_label("O=C(Cc1ccc(NC(=O)c2ccc(O)c(-c3cccc([N+](=O)[O-])c3)c2)cc1)NCCN1CCCCC1")
"class 0"
>>> qualitative_label("COc1ccc2nccc([C@@H](O)CN3CCC(NC(=O)COc4nc(SCc5ccc(F)cc5)nc5c4CCC5)CC3)c2c1")
"class 1"
>>> qualitative_label("COCC(C)n1c(C)cc(C(=O)CSc2nnc(Nc3ccccc3)s2)c1C (centres undefined)")
"class 1"
>>> qualitative_label("CC(=O)Nc1sc(C)c(C)c1CN1CCc2ccccc2C1")
"class 1"
>>> qualitative_label("Nc1nc(-c2ccccn2)nc(-n2nc(-c3cccc(C(F)(F)F)c3)cc2N)n1")
"class 1"
>>> qualitative_label("O=C(Nc1cccc(CN2CCCN(Cc3cccc(F)c3)CC2)c1)c1ccc(Cl)c(Cl)c1")
"class 0"
>>> qualitative_label("COc1cc2nc(N3CCC(CNC(=O)c4ccc(-c5ccc(C(=O)N(C)C)cc5C)cc4)CC3)nc(N3CCN(C)CC3)c2cc1OC")
"class 1"
>>> qualitative_label("CN(CCCCNC(=O)/C=C/c1ccccc1)C1CC2(CCN(C(=O)OC(C)(C)C)CC2)c2ccccc21 (centres undefined)")
"class 0"
>>> qualitative_label("OC1(Cc2ccccc2)CCN(Cc2cccc(-c3c[nH]c4nc(NC5CCCC5)ncc34)c2)CC1")
"class 0"
>>> qualitative_label("Cc1nnc2c(NC(=O)NC3CCCC3)cc3cc(-c4ccc(CN5CCCCC5)cc4)ccc3n12")
"class 1"

====

Reported growth inhibition by item:
experiment: inhibition of 3D7 malaria parasite growth – strain 3D7 (AID 2306);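 also: 0% = DMSO wells and 100% = chloroquine plus artemisinin control wells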; settings: P. falciparum 3D7 erythrocytic growth, LDH absorbance, 72 h; at 2 µM; active compounds read high
measure_name: growth inhibition (%)

>>> value_observed("Fc1ccc2nc(-c3ccc(-c4ccc(CN5CCN(c6cnccn6)CC5)cc4)s3)[nH]c2c1")
99
>>> value_observed("Fc1ccc(C=NNc2ccnc3ccccc23)cc1")
101
>>> value_observed("NCCCNc1nc(Nc2ccc(C(F)(F)F)cc2F)c2c(=O)[nH]ccc2n1")
95
>>> value_observed("O=C(Nc1ccc(F)cc1)N1CCCN(c2ccnc3cc(Cl)ccc23)CC1")
97
>>> value_observed("C#Cc1cccc(NC(=O)[C@H](CC2CCCCC2)Nc2ccc(C#N)c3ccccc23)c1")
100
>>> value_observed("COc1ccc(Nc2nc(C)cc(NCc3ccc(-c4c(C)noc4C)cc3)n2)cc1")
99
>>> value_observed("O=C(Nc1cccc(Cl)c1Cl)N1CCc2cc3nccc(N4CCN5CCC[C@H]5C4)c3cc21")
98
>>> value_observed("COc1ccc2ccccc2c1CCCCN1CCN(CC(c2ccc(F)cc2)N2CCC(N3CCCC3)CC2)CC1 (stereo not drawn)")
99
>>> value_observed("COc1ccc(Nc2ncc3c(-c4cccc(NC(=O)CC(C)C)c4)c[nH]c3n2)cc1OC")
101
>>> value_observed("O=c1[nH]ccc2nc(N[C@@H]3CCNC3)nc(Nc3cccc(S(=O)(=O)N4CCOCC4)c3)c12")
90
>>> value_observed("O=C(O)C[C@H](NC(=O)c1cc(-c2ccc3c(c2)OCO3)no1)C(=O)O (tested in a mixture with another compound)")
98
>>> value_observed("O=C(NC1CCC(N2CCC(Cc3ccc(F)cc3)CC2)CC1)c1cc2ccccc2[nH]1 (stereo not drawn)")
98
>>> value_observed("CCOc1ccc(NC(=O)c2cn3nc(-c4ccc(OCC)cc4)cc3nc2C2CCNCC2)cc1")
102
>>> value_observed("Cc1cccc(C)c1C1CCN(C2CCC(NC(=O)/C=C/c3ccccc3)CC2)CC1 (stereo not drawn)")
100
>>> value_observed("CCNc1cc(C(=O)N[C@@H](Cc2ccccc2)[C@H](O)CN[C@@H](C)c2ccccc2)cc(N2CCCC2=O)c1")
98
>>> value_observed("COc1ccc(Oc2ccc(-c3c(C)[nH]c(C)cc3=O)cc2)cc1")
93
>>> value_observed("O=C(/C=C/c1ccc(Cl)c(Cl)c1)N1CCC(CCN2CCC(c3c[nH]c4cc5c(cc34)OCO5)CC2)CC1")
99
>>> value_observed("COc1cc(NC2CCCC(NCc3cn(S(=O)(=O)c4ccccc4)c4ccccc34)C2)nc2ccccc12 (stereo not drawn)")
100
>>> value_observed("FC(F)(F)c1cnc(Sc2nnc(-c3ccco3)o2)c(Cl)c1")
98
>>> value_observed("Cc1cccc2[nH]c(-c3cccc(-c4cccc(CNC(C)C)c4)c3)nc12")
102
>>> value_observed("CCN(CCC1(c2ccc(Cl)c(Cl)c2)CN(C(=O)c2cc(OC)c(OC)c(OC)c2)CCO1)[C@@H]1C[C@@H]2c3ccccc3C[C@@H]21 (stereo partly drawn)")
80
>>> value_observed("Cc1cc(N(C)C)nc(Nc2ccc(NC(=O)c3ccc(Br)o3)cc2)n1")
101
>>> value_observed("Cn1cncc1CCN(Cc1ccc(-c2ccc(C(F)(F)F)cc2)cc1)C(=O)Cn1c(CCc2cccc(F)c2F)cc(=O)c2cccnc21")
100
>>> value_observed("CCN(CCCN1CCCCC1)c1cc(C)nc(Nc2cccc(OC(F)(F)F)c2)n1")
102
>>> value_observed("CC(C(=O)N1CCCC1)N1CCN(S(=O)(=O)c2ccc(C(C)(C)C)cc2)CC1 (stereo not drawn)")
98
>>> value_observed("COC(=O)c1cccc(CNCc2cccc(-c3ccc(-c4nc5ccc(C(F)(F)F)cc5[nH]4)cc3)c2)c1")
102
>>> value_observed("Cc1cccc2[nH]c(-c3ccc(-c4ccc(C(=O)NCCN5CCCC5)cc4)s3)nc12")
100
>>> value_observed("COc1ccc(CCON2C(N)=NC(N)=NC2(C)C)cc1OC")
96
>>> value_observed("O=C(N1CCN(c2ccnc3cc4c(cc23)N(Cc2ccccc2)CC4)CC1)C(F)(F)F")
100
>>> value_observed("CC1(C)N=C(N)N=C(N)N1OCCSc1ccccc1")
95
>>> value_observed("COc1ccc2c(c1)OC(C)(C)CC2=NOS(=O)(=O)c1ccc(C)cc1")
97
>>> value_observed("O=C(Nc1cccc(F)c1)NC1CCN(c2ccnc3cc(Cl)ccc23)C1 (stereo not drawn)")
101
>>> value_observed("CNCCNCc1cccc(-c2cccc(-c3nc4ccc(F)cc4[nH]3)c2)c1")
98
>>> value_observed("CCCCC(N)COc1cccc2c(-c3ccncc3)c(-c3cccc(NC(=O)Nc4ccccc4)c3)nn12 (stereo not drawn)")
102
>>> value_observed("COc1cc2c(cc1OC)CN(CCc1ccc(NC(=O)c3cc4cc(OC(F)(F)F)ccc4[nH]3)cc1)CC2")
99
>>> value_observed("O=C(Nc1ccc(Cl)cc1Cl)N[C@H]1CCN(CCCCCNC(=O)[C@@H]2C[C@H]2c2ccc(Cl)c(Cl)c2)C1")
94
>>> value_observed("CCOC(=O)c1cccc(NC(=O)Nc2cc(C)nc3ccccc23)c1")
100
>>> value_observed("CCC(CC)CN1C(=O)C(c2ccccc2)(c2ccccc2)N=C1N")
97

====

Reported growth inhibition by item:
assay: inhibition of 3D7 malaria parasite growth – strain 3D7 (AID 2306);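 also: 0% = DMSO wells and 100% = chloroquine plus artemisinin control wells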; conditions: P. falciparum 3D7 erythrocytic growth, LDH absorbance, 72 h; at 2 µM; active compounds read high
measure_name: growth inhibition (%)

>>> value_observed("CC(CN)OCn1cnc2c(N)ncnc21 (stereo not given)")
95
>>> value_observed("COC(=O)c1cc(OC)c(OC)cc1NC(=O)NC12CC3CC(CC(C3)C1)C2")
94
>>> value_observed("COc1ccc(CN(C)CCCc2ccc(NC(=O)c3cc4ccccc4[nH]3)cc2)cc1OC")
97
>>> value_observed("O=C(C=Cc1ccc(Cl)c(Cl)c1)NCCCCCN1CCCC(CCCNC(=O)c2cccs2)C1 (stereo not given)")
89
>>> value_observed("COC(=O)CCCOc1cc(Cc2cnc(N)nc2N)cc(OC)c1OC")
95
>>> value_observed("Cc1cccc2[nH]c(-c3ccc(-c4ccc(NC(=O)NCc5cccc(F)c5)cc4)s3)nc12")
101
>>> value_observed("Cc1cc(C(=O)CN2C(=O)NC3(CCCc4ccccc43)C2=O)c(C)n1Cc1ccc(F)cc1 (stereo not given)")
92
>>> value_observed("Fc1ccc(OC2CN(c3nccc(NCc4ccccc4Cl)n3)C2)cc1")
98
>>> value_observed("OCC1CCN(Cc2ccc(-c3ccc(-c4nc5ccc(F)cc5[nH]4)s3)cc2)CC1")
101
>>> value_observed("COc1ccc(CNC2Cc3ccccc3C2)cc1-c1ccc(OC)c(S(=O)(=O)NCCN2CCCC2)c1")
101
